- System tested: Vasopressin V1 receptor (Rattus norvegicus, UniProt P48974+P30560)
- Measurement notes: Inhibition of radioligand [3H]AVP binding to the vasopressin V1 receptor in rat liver tissue
Readout kind: IC50 (µM)

Take a look at these entries with their results.
[
  {
    "Compound": "CC1(C)[C@@H]2CC[C@@]1(CS(=O)(=O)N1CCC3(CCc4ccccc43)CC1)[C@@H](NC(=O)C(CCS(C)(=O)=O)c1c[nH]cn1)C2 (single isomer, unassigned; isomer B)",
    "Observed result": 2.2
  },
  {
    "Compound": "CC1(C)[C@@H]2CC[C@@]1(CS(=O)(=O)N1CCC3(CCc4ccccc43)CC1)[C@@H](NC(=O)C(CCS(C)(=O)=O)NC(=O)CN)C2 (stereo partly drawn)",
    "Observed result": 0.44
  },
  {
    "Compound": "CN(C)[C@H](Cc1c[nH]cn1)C(=O)N[C@H]1C[C@H]2CC[C@]1(CS(=O)(=O)N1CCC3(CCc4ccccc43)CC1)C2(C)C",
    "Observed result": 1.7
  }
]

P: CC1(C)[C@@H]2CC[C@@]1(CS(=O)(=O)N1CCC3(CCc4ccccc43)CC1)[C@@H](NC(=O)C(N)CCC#N)C2 (stereo partly drawn)
Q: CC1(C)[C@@H]2CC[C@@]1(CS(=O)(=O)N1CCC3(CCc4ccccc43)CC1)[C@@H](N1C(=O)CC(CCC(=O)O)C1=O)C2 (stereo partly drawn)
Qu. Dear colleague, could you let me know whether P or Q has the lower recorded IC50? Thanks. Answer by stating the label of the chosen item.
Ans. P
(P: 1.4 µM, Q: 2.1 µM)

1: CC(C)(C(=O)N[C@H]1C[C@H]2CC[C@]1(CS(=O)(=O)N1CCC3(CCc4ccccc43)CC1)C2(C)C)c1c[nH]cn1
2: CC1(C)[C@@H]2CC[C@@]1(CS(=O)(=O)N1CCC3(C=Cc4ccccc43)CC1)[C@@](O)(CNC(=O)c1ccccn1)C2
Qu. Select the item whose IC50 value is smaller, choosing between 1 and 2 . Give the label under which the chosen entry appears.
Ans. 2
(2: 1.1 µM, 1: 3 µM)
